The origin of these recorded values is patent US20240270821A1.

tgt: human GLP-1R (SNAP-GLP-1R expressed in HEK293 cells) (human) (UniProt P43220)
Sequence (P43220 24-463): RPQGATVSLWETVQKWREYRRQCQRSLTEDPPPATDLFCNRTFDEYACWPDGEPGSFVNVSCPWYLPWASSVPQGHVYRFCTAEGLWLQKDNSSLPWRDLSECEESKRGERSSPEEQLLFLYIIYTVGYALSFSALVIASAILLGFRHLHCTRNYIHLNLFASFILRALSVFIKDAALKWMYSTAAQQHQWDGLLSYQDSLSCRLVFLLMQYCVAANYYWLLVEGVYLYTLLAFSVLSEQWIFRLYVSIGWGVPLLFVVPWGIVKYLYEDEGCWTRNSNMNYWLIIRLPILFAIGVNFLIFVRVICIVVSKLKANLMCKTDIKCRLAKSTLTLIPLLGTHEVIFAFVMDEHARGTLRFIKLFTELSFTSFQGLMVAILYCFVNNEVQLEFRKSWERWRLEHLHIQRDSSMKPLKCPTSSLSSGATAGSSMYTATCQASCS
assay.procedure: cell-based or functional assay
Starred links: 1 amine or outer side, 2 acyl side, 3 side chain; linkers in the order of their positions; H or OH if unused. Non-standard residues stand in square brackets, D forms with d. Groups on a side chain read outwards from the residue. No end group written: not given here. *: point of attachment. C18 diacid = O=C(O)CCCCCCCCCCCCCCCCC(=O)*; γGlu = O=C(O)[C@H](CCC(=O)[*:2])N[*:1]; αMeL = CC(C)C[C@](C)(N)C(=O)O; Dap = NC[C@H](N)C(=O)O; AEEA = NCCOCCOCC(=O)O; Aib = CC(C)(N)C(=O)O
Classify by measured GLP1R Internalization EC50: Condition met if it is equal to or exceeds 50 nM, Condition not met if it is smaller.

Observe how each entry below is paired with its result.
INSERT INTO measurements (binder, class_label) VALUES
  ('YXQGTFTSDXSRXLDKKAQXAFIEYLLAGGPSSGAPPPSGE (synthetic construct; SITE 2: note = 2-Aminoisobutyric Acid; SITE 10: note = 3-(4-Pyridyl)-L-alanine; SITE 13: note = alpha-methyl-leucine; SITE 17: note = Lysine is chemically modified through conjugation of the epsilon-amino group of the Lysine side chain with (2-[2-(2-Amino-ethoxy)-ethoxy]-acetyl)) [Example 113]', 'Condition not met'),
  ('YXQGTXTSDXXIXLDXKAQXEFIEXLVEGGPSSGAPPPSGS (synthetic construct; SITE 2: note = 2-Aminoisobutyric Acid; SITE 6: note = alpha-methyl-2-fluoro-L-phenylalanine; SITE 10: note = 3-(4-Pyridyl)-L-alanine; SITE 11: note = alpha-methyl-L-serine; SITE 13: note = alpha-methyl-leucine; SITE 16: note = L-ornithine; SITE 17: note = Lysine is chemically mo) [Example 694]', 'Condition not met'),
  ('YXQGTFTSDFSXXLDKKAQXAFIEWLLEGGHSSGAPPPSGE (synthetic construct; SITE 2: note = 2-Aminoisobutyric Acid; SITE 12: note = L-ornithine; SITE 13: note = alpha-methyl-leucine; SITE 17: note = Lysine is chemically modified through conjugation of the epsilon-amino group of the Lysine side chain with (2-[2-(2-Amino-ethoxy)-ethoxy]-acetyl)-(gamma-Glu)) [Example 122]', 'Condition met'),
  ('Y[Aib]QGTFTSDFS[Dap][αMeL]LDKK([AEEA-γGlu-C18 diacid])AQ[Aib]AFIEYLLE[Aib]GPSSGAPPPSGS-NH2 [Example 134]', 'Condition met'),
  ('YXQGTFTSDXSRXLDKKAQXAFIEYLIEXGESSGAPPPSGS (synthetic construct; SITE 2: note = 2-Aminoisobutyric Acid; SITE 10: note = 3-(4-Pyridyl)-L-alanine; SITE 13: note = alpha-methyl-leucine; SITE 17: note = Lysine is chemically modified through conjugation of the epsilon-amino group of the Lysine side chain with (2-[2-(2-Amino-ethoxy)-ethoxy]-acetyl)) [Example 187]', 'Condition not met'),
  ('YXQGTFTSDFSXXLDKKAQXAFIEYLLEXGPSSGAPPPSGT (synthetic construct; SITE 2: note = 2-Aminoisobutyric Acid; SITE 12: note = L-ornithine; SITE 13: note = alpha-methyl-leucine; SITE 17: note = Lysine is chemically modified through conjugation of the epsilon-amino group of the Lysine side chain with (2-[2-(2-Amino-ethoxy)-ethoxy]-acetyl)-(gamma-Glu)) [Example 200]', 'Condition met'),
  ('YXQGTFTSDFSXXLDKKAQXAFIEYLLEGGPSSGAPPPSGE (synthetic construct; SITE 2: note = 2-Aminoisobutyric Acid; SITE 12: note = L-ornithine; SITE 13: note = alpha-methyl-leucine; SITE 17: note = Lysine is chemically modified through conjugation of the epsilon-amino group of the Lysine side chain with (2-[2-(2-Amino-ethoxy)-ethoxy]-acetyl)2-(gamma-Glu)) [Example 107]', 'Condition met'),
  ('YXQGTFTSDFSIXLDKKAQXAFIEYLLEGGPSSGEPPPSEG (synthetic construct; SITE 2: note = 2-Aminoisobutyric Acid; SITE 13: note = alpha-methyl-leucine; SITE 17: note = Lysine is chemically modified through conjugation of the epsilon-amino group of the Lysine side chain with (2-[2-(2-Amino-ethoxy)-ethoxy]-acetyl)-(gamma-Glu)-CO-(CH2) 18-CO2H; SITE 20: n) [Example 288]', 'Condition not met'),
  ('YXQGTFTSDXSRXLDKKAQXAFIEYLLEXGESSGAPPPSGS (synthetic construct; SITE 2: note = 2-Aminoisobutyric Acid; SITE 10: note = 3-(4-Pyridyl)-L-alanine; SITE 13: note = alpha-methyl-leucine; SITE 17: note = Lysine is chemically modified through conjugation of the epsilon-amino group of the Lysine side chain with (2-[2-(2-Amino-ethoxy)-ethoxy]-acetyl)) [Example 132]', 'Condition met'),
  ('YXQGTFTSDFSXXLDKKAQXAFIEYLLEXGXSSGAPPPSGS (synthetic construct; SITE 2: note = 2-Aminoisobutyric Acid; SITE 12: note = L-ornithine; SITE 13: note = alpha-methyl-leucine; SITE 17: note = Lysine is chemically modified through conjugation of the epsilon-amino group of the Lysine side chain with (2-[2-(2-Amino-ethoxy)-ethoxy]-acetyl)-(gamma-Glu)) [Example 242]', 'Condition met');

Is the recorded value of GLP1R Internalization EC50 equal to or greater than 50 nM for this binder? YXQGTFTSDFSXXLDKKAQXAFIEYLLEAGPSSGEPPPSGE (synthetic construct; SITE 2: note = 2-Aminoisobutyric Acid; SITE 12: note = L-ornithine; SITE 13: note = alpha-methyl-leucine; SITE 17: note = Lysine is chemically modified through conjugation of the epsilon-amino group of the Lysine side chain with (2-[2-(2-Amino-ethoxy)-ethoxy]-acetyl)2-(gamma-Glu)) [Example 117]
Condition not met

Is the recorded value of GLP1R Internalization EC50 equal to or greater than 50 nM for this binder? YXQGTFTSDFSXXLDKKAQXAFIEYLLEXGXSSGAPPPSGE (synthetic construct; SITE 2: note = 2-Aminoisobutyric Acid; SITE 12: note = L-ornithine; SITE 13: note = alpha-methyl-leucine; SITE 17: note = Lysine is chemically modified through conjugation of the epsilon-amino group of the Lysine side chain with (2-[2-(2-Amino-ethoxy)-ethoxy]-acetyl)-(gamma-Glu)) [Example 248]
Condition met
